target: Troponin I, cardiac muscle (Homo sapiens) + Troponin T, cardiac muscle (Homo sapiens) + Troponin C, slow skeletal and cardiac muscles (Homo sapiens) (UniProt P19429+P45379+P63316)
assayInfo: cardiac RTF calcium sensitivity activators, confirmation, biochemical, IANBD-TnC fluorescence, triplicate (AID 504383);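 further: 0% = DMSO at 0.472 mM calcium and 100% = DMSO at 2.9 mM calcium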
reportedConditions: IANBD-labeled cardiac RTF, Ca2+ sensitivity fluorescence; at 7.2 µM; hits give high values; scaled from EC20 to saturating calcium; tested at EC20 calcium, 0.472 mM
About 1,200 (48%) of roughly 2,500 compounds were called active. So high a share suggests a set chosen from earlier hits. This is one part of the list.
We use 10% as the dividing line for activation: on or above the line is 1, below is 0.

>>> assignedclass("O=C(NCc1ccccc1)C1(c2cccc(F)c2)CCCC1")
0
>>> assignedclass("CCCCn1c(N)c(N(CC(C)C)C(=O)Cc2ccc(S(=O)(=O)N3CCOCC3)s2)c(=O)[nH]c1=O")
0
>>> assignedclass("CCC12OC(=N)C(C#N)(C1C)C(C#N)(C#N)C(c1ccccc1)O2 (configuration not stated)")
0
>>> assignedclass("O=C(c1c[nH]c(C(=O)C(Cl)(Cl)Cl)c1)c1c(F)cccc1F")
1
>>> assignedclass("CCN(C(=O)c1cnc(NC(C)C)cc1C(F)(F)F)c1ccc(Cl)cc1")
0

// next entry
Confirm if activation reported for the molecule Cc1cc(C)c(OCCOCCN2CCNCC2)c(C)c1 is 10% or above. 0

====

target: Troponin I, cardiac muscle (Homo sapiens) + Troponin T, cardiac muscle (Homo sapiens) + Troponin C, slow skeletal and cardiac muscles (Homo sapiens) (UniProt P19429+P45379+P63316)
assayInfo: cardiac RTF calcium sensitivity activators, confirmation, biochemical, IANBD-TnC fluorescence, triplicate (AID 504383);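 further: 0% = DMSO at 0.472 mM calcium and 100% = DMSO at 2.9 mM calcium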
reportedConditions: IANBD-labeled cardiac RTF, Ca2+ sensitivity fluorescence; at 7.2 µM; scaled from EC20 to saturating calcium; tested at EC20 calcium, 0.472 mM
The whole screen tested about 2,500 compounds, of which about 1,200 (48%) were called active.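 How the source made its calls: active means mean activation above the low control average plus 3 SD, as set in the primary screen (cut at about 12% in these data); inactive means the rest.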 So high a share suggests a set chosen from earlier hits. Some of the results follow.
# valid calls are active, inactive; nothing else

Examples from the recorded data:
>>> assignedclass("Cc1cc2nc3c(=O)[nH]c(=O)[nH]c3nc2c([N+](=O)[O-])c1N")
"inactive"
>>> assignedclass("Cc1c2ccccc2nc2c(F)c(N(C)C)c(F)c(F)c12")
"active"
>>> assignedclass("CN1CC=C2C(C#N)=C(N)C(C#N)(C#N)C(c3ccsc3)C2C1 (stereo not given)")
"inactive"
>>> assignedclass("Cc1cc(C)n(-c2ccc([N+](=O)[O-])cc2-c2nn[nH]n2)n1")
"inactive"

For this compound, state the assay outcome: O=C(C[n+]1cccc2ccccc21)c1ccccc1 inactive

For this compound, state the assay outcome: COc1ccc2noc3c2c1C(=O)c1ccccc1-3 inactive

For this compound, state the assay outcome: COC(=O)C[n+]1cccc2ccccc21 active

For this compound, state the assay outcome: COc1ccc2c3c(cccc13)C(=O)CC2 active

For this compound, state the assay outcome: Cc1c2ccccc2nc2c(F)c(NCCO)c(F)c(F)c12 active

For this compound, state the assay outcome: COc1cccc(N=C2NC(=O)/C(=C/c3cc([N+](=O)[O-])ccc3O)S2)c1 inactive

====

target: Troponin I, cardiac muscle (Homo sapiens) + Troponin T, cardiac muscle (Homo sapiens) + Troponin C, slow skeletal and cardiac muscles (Homo sapiens) (UniProt P19429+P45379+P63316)
assayInfo: cardiac RTF calcium sensitivity activators, confirmation, biochemical, IANBD-TnC fluorescence, triplicate (AID 504383);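 further: 0% = DMSO at 0.472 mM calcium and 100% = DMSO at 2.9 mM calcium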
reportedConditions: IANBD-labeled cardiac RTF, Ca2+ sensitivity fluorescence; at 7.2 µM; hits give high values; scaled from EC20 to saturating calcium; tested at EC20 calcium, 0.472 mM
Among all 2,500 compounds or so, about 1,200 (48%) were called active. So high a share suggests a set chosen from earlier hits. Some of the results follow.
parameter: activation (%)
Please reply with the bare figure in % and do not write the unit itself.

>>> value("Cc1ccc2oc3c(SCc4nc5ccccc5[nH]4)nc(C)nc3c2c1")
21.2
>>> value("S=C1NC2=C(CCCC2=C2SCCCS2)C(c2ccccc2)N1 (stereo unspecified)")
23.6
>>> value("CN(C)C(CNC(=O)c1cccc(S(=O)(=O)N(C)C)c1)c1ccccc1 (stereo unspecified)")
14.9
>>> value("O=C1NC(c2cccc([N+](=O)[O-])c2)Oc2ccccc21 (stereo unspecified)")
10.3
>>> value("CSCCC(NC(=O)c1ccc(Cl)cc1)C(=O)OCC(=O)c1ccc[nH]1 (stereo unspecified)")
9.46

Attention now shifts to the item below.
Fill blank: measured activation of the compound CCN1CC=C2C(C#N)=C(N)C(C#N)(C#N)[C@H](c3ccoc3)[C@H]2C1 is ____. -0.65
